# target system: GSK3B ; P49841-2;P49841 (Homo sapiens)
# Sequence (P49841 whole entry): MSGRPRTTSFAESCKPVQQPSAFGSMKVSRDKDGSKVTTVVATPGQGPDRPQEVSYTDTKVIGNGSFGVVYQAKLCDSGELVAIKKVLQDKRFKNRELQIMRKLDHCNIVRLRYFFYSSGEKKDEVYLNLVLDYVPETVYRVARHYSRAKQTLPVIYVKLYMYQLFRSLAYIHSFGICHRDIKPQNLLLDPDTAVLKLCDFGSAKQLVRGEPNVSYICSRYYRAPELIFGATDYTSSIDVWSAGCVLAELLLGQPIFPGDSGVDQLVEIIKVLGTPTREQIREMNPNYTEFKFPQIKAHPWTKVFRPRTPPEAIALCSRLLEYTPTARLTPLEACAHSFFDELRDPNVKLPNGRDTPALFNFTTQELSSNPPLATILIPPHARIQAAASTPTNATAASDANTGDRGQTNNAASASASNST
# procedure details: biochemical

>  <structure string>
CNCc1ccc(-c2cc(-c3nc(-c4ccc(S(=O)(=O)C(C)C)cc4)cnc3N)on2)cc1

>  <target system>
GSK3B ; P49841-2;P49841 (Homo sapiens)

>  <Kd>
33.2 nM

$$$$

---

# Tested on: p-sites in DNA-damaged AsPC-1 cells
# procedure details: decryptM dose-resolved phosphoproteomics of ATRi in GEM-pre-treated cells
# Type: cell-based, human
# test parameters: PELP1-pS1033
observed property: Log2 PTM response (GEM+ATRi vs. GEM)

>  <compound>
CNCc1ccc(-c2cc(-c3nc(-c4ccc(S(=O)(=O)C(C)C)cc4)cnc3N)on2)cc1 [Berzosertib]

>  <observed value>
-1.4

$$$$
>  <compound>
C[C@@H]1COCCN1c1cc(-c2ccnn2C)c2ccnc(-c3ccn[nH]3)c2n1 [Elimusertib]

>  <observed value>
-1

$$$$
>  <compound>
Nc1nn2cc(F)cnc2c1C(=O)Nc1cncc(F)c1N1CCC(C(=O)N2CCN(C3COC3)CC2)CC1 [Gartisertib]

>  <observed value>
-1

$$$$
>  <compound>
C[C@@H]1COCCN1c1cc(C2([S@](C)(=N)=O)CC2)nc(-c2cc[nH]c3nccc2-3)n1 [Ceralasertib]

>  <observed value>
-1.3

$$$$

---

# System: AsPC-1 cells
# procedure details: Cell proliferation assay, chemodrug + ATR inhibitor (Incucyte confluence, 72 h);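 note: underlying read-out for every value is AsPC-1 confluence after 72 h incubation at 37 °C and 5% CO2, divided by that well's starting confluence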
# test parameters: Homo sapiens, ASPC1, read-out: EC50 mean [nM], AsPC1; Experiment GEM alone in the Berzosertib series; mean of replicates

>  <compound>
Nc1ccn([C@@H]2O[C@H](CO)[C@@H](O)C2(F)F)c(=O)n1 [GEM, Gemcitabine]

>  <EC50 (nM)>
40.5

$$$$

---

# Test system: PANC-1
# procedure details: cells
# Design: Viability of PDAC cell lines, ATPlite luminescence, 11-dose single-agent curve fit
# test parameters: Homo sapiens, PANC-1, 72 h, read-out: EC50 [nM]

>  <compound>
Cc1c(F)cc(C(=O)NC2CC2)cc1-c1ccc(C(=O)NCC(C)(C)C)cn1

>  <reading qualifier>
=

>  <EC50, nM>
95.7

$$$$
>  <compound>
COc1cc2c(Oc3ccc4[nH]c(C)cc4c3F)ncnc2cc1OCCCN1CCCC1

>  <reading qualifier>
=

>  <EC50, nM>
7310

$$$$
>  <compound>
CO[C@H]1C[C@@H]2CC[C@@H](C)[C@@](O)(O2)C(=O)C(=O)N2CCCC[C@H]2C(=O)O[C@H]([C@H](C)C[C@@H]2CC[C@@H](OP(C)(C)=O)[C@H](OC)C2)CC(=O)[C@H](C)/C=C(\C)[C@@H](O)[C@@H](OC)C(=O)[C@H](C)C[C@H](C)/C=C/C=C/C=C/1C

>  <reading qualifier>
=

>  <EC50, nM>
4.17

$$$$
>  <compound>
C#Cc1cccc(Nc2ncnc3cc4c(cc23)OCCOCCOCCO4)c1

>  <reading qualifier>
=

>  <EC50, nM>
716

$$$$
>  <compound>
CC[C@H](Nc1ncnc2[nH]cnc12)c1nc2cccc(F)c2c(=O)n1-c1ccccc1

>  <reading qualifier>
=

>  <EC50, nM>
3010

$$$$
>  <compound>
C=CC(=O)N1CCC(CNc2ncnc(N)c2-c2ccc(Oc3ccccc3)cc2)CC1

>  <reading qualifier>
>

>  <EC50, nM>
10000

$$$$
>  <compound>
CCN1C(=O)N(c2c(F)c(OC)cc(OC)c2F)Cc2cnc3[nH]c(CN4CCOCC4)cc3c21

>  <reading qualifier>
=

>  <EC50, nM>
442

$$$$
>  <compound>
COc1cc(Nc2ncc(F)c(Nc3ccc4c(n3)N(COP(=O)(O)O)C(=O)C(C)(C)O4)n2)cc(OC)c1OC

>  <reading qualifier>
=

>  <EC50, nM>
658

$$$$
>  <compound>
O=C(c1cc(Cc2n[nH]c(=O)c3ccccc23)ccc1F)N1CCN(C(=O)C2CC2)CC1

>  <reading qualifier>
>

>  <EC50, nM>
10000

$$$$
>  <compound>
Cc1cc(F)c(C(=O)Nc2cccc(-c3nncn3C(C)C)n2)cc1-n1cnc(C2CC2)c1

>  <reading qualifier>
=

>  <EC50, nM>
8800

$$$$
>  <compound>
CN(C)CCCOc1ccc(-c2ccc3ncc4c(c3c2)n(C2CCOCC2)c(=O)n4C)cn1

>  <reading qualifier>
>

>  <EC50, nM>
10000

$$$$
>  <compound>
C[C@@H](c1ccc2nccn2c1)n1nnc2ncc(-c3cnn(C)c3)nc21

>  <reading qualifier>
=

>  <EC50, nM>
3950

$$$$
>  <compound>
Cc1cc(Nc2ncnc3ccc(NC4=NC(C)(C)CO4)cc23)ccc1Oc1ccn2ncnc2c1

>  <reading qualifier>
=

>  <EC50, nM>
5670

$$$$
>  <compound>
Cc1[nH]c(/C=C2\C(=O)Nc3ccccc32)c(C)c1CCC(=O)O [Orantinib]

>  <reading qualifier>
=

>  <EC50, nM>
568

$$$$
>  <compound>
Cn1cnc2c(F)c(Nc3ccc(Br)cc3F)c(C(=O)NOCCO)cc21

>  <reading qualifier>
=

>  <EC50, nM>
350

$$$$
